Target: LIM domain kinase 1 (Homo sapiens, UniProt P53667)
Sequence (P53667 whole entry, the tested form may be a part): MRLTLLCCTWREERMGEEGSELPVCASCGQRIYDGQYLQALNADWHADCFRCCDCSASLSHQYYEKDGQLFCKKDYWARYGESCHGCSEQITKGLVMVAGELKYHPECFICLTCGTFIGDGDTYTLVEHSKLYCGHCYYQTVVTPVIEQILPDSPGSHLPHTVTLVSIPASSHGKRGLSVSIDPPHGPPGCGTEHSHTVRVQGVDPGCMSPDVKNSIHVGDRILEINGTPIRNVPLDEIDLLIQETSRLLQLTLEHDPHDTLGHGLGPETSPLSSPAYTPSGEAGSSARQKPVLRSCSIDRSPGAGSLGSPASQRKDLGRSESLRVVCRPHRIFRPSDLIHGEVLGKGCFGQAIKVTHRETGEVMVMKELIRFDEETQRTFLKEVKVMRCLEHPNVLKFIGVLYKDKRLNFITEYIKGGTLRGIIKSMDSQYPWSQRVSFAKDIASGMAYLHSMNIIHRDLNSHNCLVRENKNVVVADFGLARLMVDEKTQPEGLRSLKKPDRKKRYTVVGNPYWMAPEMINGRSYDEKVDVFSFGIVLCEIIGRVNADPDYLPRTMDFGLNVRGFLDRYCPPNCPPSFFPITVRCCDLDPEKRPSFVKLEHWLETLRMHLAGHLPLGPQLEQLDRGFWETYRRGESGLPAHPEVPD
MEASURED PROPERTY: IC50 (nM)
Could you give me the number in nM? Just the number is fine.

Task: # query: IC50 of entry Cc1c[nH]c2ncnc(N3CCN(C(=O)Nc4cccc(OC(=O)N(C)C)c4)[C@@H](C)C3)c12
Result: 3.2

Task: # query: IC50 of entry Cc1c[nH]c2ncnc(N3CCN(/C(=N\C#N)Nc4cccc(Br)c4)[C@@H](C)C3)c12
Result: 0.5

Task: # query: IC50 of entry Cc1c[nH]c2ncnc(N3CCN(C(=O)Nc4ccc(F)c(Br)c4)[C@@H](C)C3)c12
Result: 6.6

Task: # query: IC50 of entry Cc1c[nH]c2ncnc(N3CCN(/C(=N/C#N)Nc4ccc(F)c(Br)c4)[C@@H](C)C3)c12
Result: 3.7

---

For each of the compounds below, state its IC50.
Target: LIM domain kinase 2 (Homo sapiens, UniProt P53671)
Sequence (P53671 whole entry, the tested form may be a part): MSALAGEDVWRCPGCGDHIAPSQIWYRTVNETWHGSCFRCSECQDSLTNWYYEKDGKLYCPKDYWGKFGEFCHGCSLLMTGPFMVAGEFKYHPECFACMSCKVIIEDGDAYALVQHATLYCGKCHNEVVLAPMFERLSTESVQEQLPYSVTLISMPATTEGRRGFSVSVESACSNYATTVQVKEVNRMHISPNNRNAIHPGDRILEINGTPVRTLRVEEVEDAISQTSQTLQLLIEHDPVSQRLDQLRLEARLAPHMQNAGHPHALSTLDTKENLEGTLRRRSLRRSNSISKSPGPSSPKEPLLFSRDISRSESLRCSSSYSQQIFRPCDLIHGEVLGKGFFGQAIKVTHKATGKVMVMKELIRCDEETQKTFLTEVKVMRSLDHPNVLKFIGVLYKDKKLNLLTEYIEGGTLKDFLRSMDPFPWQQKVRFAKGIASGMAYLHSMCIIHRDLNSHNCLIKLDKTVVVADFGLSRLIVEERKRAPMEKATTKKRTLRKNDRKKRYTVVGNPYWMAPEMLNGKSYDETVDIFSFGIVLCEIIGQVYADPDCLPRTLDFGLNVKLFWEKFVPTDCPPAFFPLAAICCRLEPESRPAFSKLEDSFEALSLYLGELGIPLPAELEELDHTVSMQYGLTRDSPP
Test: Inhibition of human recombinant LIMK2 expressed in baculovirus-Sf9 system by scintillation counting
Could you give me the number in nM? Just the number is fine.

Task: # query: IC50 of entry Cc1cc2c(N3CCN(/C(=N/C#N)Nc4cccc(Br)c4)[C@@H](C)C3)ncnc2[nH]1
Result: 4.2

Task: # query: IC50 of entry Cc1c[nH]c2ncnc(N3CC4CC3CN4C(=Nc3cccc(Br)c3)NC#N)c12 (stereo not drawn)
Result: 76

Task: # query: IC50 of entry Cc1c[nH]c2ncnc(N3CCN(C(=O)Nc4cccc(Cl)c4)[C@@H](C)C3)c12
Result: 2.3

Task: # query: IC50 of entry Cc1c[nH]c2ncnc(N3CCN(/C(=N/C#N)Nc4cccc(S(=O)(=O)NC(C)C)c4)[C@@H](C)C3)c12
Result: 1.7

Task: # query: IC50 of entry Cc1c[nH]c2ncnc(N3CCN(C(=O)Nc4cccc(C(=O)NC(CO)CO)c4)[C@@H](C)C3)c12
Result: 3

Task: # query: IC50 of entry CC1CN(c2ncnc3[nH]ccc23)CCN1/C(=N/C#N)Nc1cccc(Br)c1 (racemic)
Result: 8.1

Task: # query: IC50 of entry Cc1c[nH]c2ncnc(N3CCN(/C(=N\C#N)Nc4cccc(Br)c4)[C@@H](C)C3)c12
Result: 0.9

Task: # query: IC50 of entry Cc1c[nH]c2ncnc(N3C[C@H](C)N(C(=Nc4cccc(Br)c4)NC#N)C[C@H]3C)c12
Result: 3.9

Task: # query: IC50 of entry Cc1c[nH]c2ncnc(N3CCN(/C(=N/C#N)Nc4ccc(F)c(Br)c4)[C@@H](C)C3)c12
Result: 1.5

Task: # query: IC50 of entry Cc1c[nH]c2ncnc(N3CCN(/C(=N/C#N)Nc4cccc(C(=O)NCCN(C)C)c4)[C@@H](C)C3)c12
Result: 3.4

Task: # query: IC50 of entry Cc1c[nH]c2ncnc(N3CCN(C(=O)Nc4cccc(Br)c4)CC3)c12
Result: 38

Task: # query: IC50 of entry Cc1c[nH]c2ncnc(N3CCN(C(=O)Nc4cccc(C(=O)NCCO)c4)[C@@H](C)C3)c12
Result: 3

Task: # query: IC50 of entry Cc1c[nH]c2ncnc(N3CCN(C(=O)Nc4cccc(C(=O)NC(C)C)c4)[C@@H](C)C3)c12
Result: 5.5

Task: # query: IC50 of entry COc1ccc(NC(=O)C2CCN(c3ncnc4[nH]cc(C)c34)CC2)cc1
Result: 1500

Task: # query: IC50 of entry Cc1c[nH]c2ncnc(N3CCN(C(=Nc4cccc(C(C)(C)C)c4)NC#N)[C@@H](C)C3)c12
Result: 1.1

Task: # query: IC50 of entry Cc1c[nH]c2ncnc(N3CCN(C(=O)Nc4ccc(F)c(Br)c4)[C@@H](C)C3)c12
Result: 3.2

Task: # query: IC50 of entry Cc1c[nH]c2ncnc(N3C[C@@H](C)N(C(=O)Nc4cccc(Br)c4)[C@@H](C)C3)c12
Result: 133

Task: # query: IC50 of entry Cc1ccc(NC(=O)C2CCN(c3ncnc4[nH]cc(C)c34)CC2)cc1
Result: 1300

Task: # query: IC50 of entry Cc1c[nH]c2ncnc(N3CCN(/C(=N/C#N)Nc4cccc(F)c4)[C@@H](C)C3)c12
Result: 1.8

Task: # query: IC50 of entry Cc1c[nH]c2ncnc(N3CCN(/C(=N/C#N)Nc4cccc(C(F)(F)F)c4)[C@@H](C)C3)c12
Result: 1.9

Task: # query: IC50 of entry Cc1c[nH]c2ncnc(N3CCN(C(=Nc4cccc(C(=O)NCCO)c4)NC#N)[C@@H](C)C3)c12
Result: 0.8

Task: # query: IC50 of entry Cc1c[nH]c2ncnc(N3CCN(C(=Nc4cccc(S(=O)(=O)NCCO)c4)NC#N)[C@@H](C)C3)c12
Result: 2.9

Task: # query: IC50 of entry Cc1c[nH]c2ncnc(N3CCC(C(=O)Nc4ccccc4)CC3)c12
Result: 800

Task: # query: IC50 of entry Cc1cccc(NC(=O)C2CCN(c3ncnc4[nH]cc(C)c34)CC2)c1
Result: 650

Task: # query: IC50 of entry Cc1c[nH]c2ncnc(N3CCN(/C(=N/C#N)Nc4cccc(C#N)c4)[C@@H](C)C3)c12
Result: 1.2

Task: # query: IC50 of entry Cc1c[nH]c2ncnc(N3CCN(C(=O)Nc4cccc(Br)c4)[C@H](C)C3)c12
Result: 37

Task: # query: IC50 of entry Cc1c[nH]c2ncnc(N3CCN(/C(=N/C#N)Nc4cccc(Br)c4)[C@@H](C(C)C)C3)c12
Result: 4.2

Task: # query: IC50 of entry Cc1c[nH]c2ncnc(N3CCC(C(=O)Nc4cccc(Oc5ccccc5)c4)CC3)c12
Result: 64

Task: # query: IC50 of entry Cc1cccc(NC(=O)N2CCN(c3ncnc4[nH]cc(C)c34)CC2)c1
Result: 92

Task: # query: IC50 of entry Cc1c[nH]c2ncnc(N3CCN(C(=Nc4cccc(C(=O)NC(C)C)c4)NC#N)[C@@H](C)C3)c12
Result: 3.5

Task: # query: IC50 of entry COc1cccc(NC(=O)C2CCN(c3ncnc4[nH]cc(C)c34)CC2)c1
Result: 520

Task: # query: IC50 of entry Cc1c[nH]c2ncnc(N3CCN(/C(=N/C#N)Nc4cccc(Cl)c4)[C@@H](C)C3)c12
Result: 1.6

---

Target: Rho-associated protein kinase 2 (Homo sapiens)
Sequence (O75116 whole entry): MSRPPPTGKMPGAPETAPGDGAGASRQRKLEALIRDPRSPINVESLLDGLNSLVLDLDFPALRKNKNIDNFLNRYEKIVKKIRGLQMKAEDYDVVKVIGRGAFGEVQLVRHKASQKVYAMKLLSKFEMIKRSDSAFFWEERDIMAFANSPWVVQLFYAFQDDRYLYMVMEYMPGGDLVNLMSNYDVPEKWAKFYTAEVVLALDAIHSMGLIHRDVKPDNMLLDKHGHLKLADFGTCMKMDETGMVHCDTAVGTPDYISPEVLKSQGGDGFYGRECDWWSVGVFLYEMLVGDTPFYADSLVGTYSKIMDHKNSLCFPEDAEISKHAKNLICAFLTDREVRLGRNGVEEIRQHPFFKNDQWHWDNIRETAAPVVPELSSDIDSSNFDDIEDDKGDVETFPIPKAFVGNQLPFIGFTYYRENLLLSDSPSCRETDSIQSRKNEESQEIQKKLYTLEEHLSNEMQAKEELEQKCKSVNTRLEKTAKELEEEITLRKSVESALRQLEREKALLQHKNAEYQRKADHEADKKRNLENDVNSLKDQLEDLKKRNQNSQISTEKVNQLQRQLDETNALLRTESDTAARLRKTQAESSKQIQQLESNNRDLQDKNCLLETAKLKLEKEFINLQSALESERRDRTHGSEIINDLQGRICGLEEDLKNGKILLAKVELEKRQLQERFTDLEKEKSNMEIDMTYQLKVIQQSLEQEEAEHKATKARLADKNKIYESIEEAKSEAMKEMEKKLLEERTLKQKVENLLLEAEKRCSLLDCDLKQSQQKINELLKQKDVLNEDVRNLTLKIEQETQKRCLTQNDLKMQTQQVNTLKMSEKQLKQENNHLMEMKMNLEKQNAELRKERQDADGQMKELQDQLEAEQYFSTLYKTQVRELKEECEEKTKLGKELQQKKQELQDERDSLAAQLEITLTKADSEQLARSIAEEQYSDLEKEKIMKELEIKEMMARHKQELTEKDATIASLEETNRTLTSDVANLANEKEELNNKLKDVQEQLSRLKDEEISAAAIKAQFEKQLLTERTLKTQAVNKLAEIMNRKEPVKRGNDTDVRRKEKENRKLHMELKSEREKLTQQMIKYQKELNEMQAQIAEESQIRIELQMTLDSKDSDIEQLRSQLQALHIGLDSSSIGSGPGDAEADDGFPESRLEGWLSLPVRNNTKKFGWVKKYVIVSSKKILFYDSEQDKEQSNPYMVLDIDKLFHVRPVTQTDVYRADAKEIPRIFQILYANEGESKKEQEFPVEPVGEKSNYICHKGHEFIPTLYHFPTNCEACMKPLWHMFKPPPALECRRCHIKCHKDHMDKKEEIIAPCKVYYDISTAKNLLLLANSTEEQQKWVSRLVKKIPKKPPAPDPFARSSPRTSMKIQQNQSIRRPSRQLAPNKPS
For each of the molecules below, state its IC50.
Could you give me the number in nM? Just the number is fine.

Task: # query: IC50 of entry Cc1c[nH]c2ncnc(N3CCN(C(=O)Nc4cccc(OC(=O)N(C)C)c4)[C@@H](C)C3)c12
Result: 1100

Task: # query: IC50 of entry Cc1c[nH]c2ncnc(N3CCN(C(=O)Nc4ccc(F)c(Br)c4)[C@@H](C)C3)c12
Result: 280

---

Species on record: Homo sapiens
Assay: Selectivity ratio of IC50 for human LIMK2 to IC50 for human ROCK1
MEASURED PROPERTY: Ratio IC50

Task: # query: Ratio IC50 of entry Cc1c[nH]c2ncnc(N3CCN(C(=O)Nc4ccc(F)c(Br)c4)[C@@H](C)C3)c12
Result: 16

Task: # query: Ratio IC50 of entry Cc1c[nH]c2ncnc(N3CCN(C(=O)Nc4cccc(OC(=O)N(C)C)c4)[C@@H](C)C3)c12
Result: > 100

Task: # query: Ratio IC50 of entry Cc1c[nH]c2ncnc(N3CCN(/C(=N/C#N)Nc4ccc(F)c(Br)c4)[C@@H](C)C3)c12
Result: > 100

Task: # query: Ratio IC50 of entry Cc1c[nH]c2ncnc(N3CCN(/C(=N/C#N)Nc4cccc(Br)c4)[C@@H](C)C3)c12
Result: > 100

---

For each of the compounds below, state its log10(IC50).
Target: LIM domain kinase 2 (Homo sapiens, UniProt P53671)
Assay: Inhibition of human recombinant LIMK2 expressed in baculovirus-Sf9 system by scintillation counting
Would you kindly interpret these values as log10 of IC50 expressed in nM?

Task: # query: log10(IC50) of entry Cc1c[nH]c2ncnc(N3CC4CCC(C3)N4C(=O)Nc3cccc(Br)c3)c12
Result: 1.20

Task: # query: log10(IC50) of entry Cc1c[nH]c2ncnc(N3CCN(/C(=N/C#N)Nc4cccc(Br)c4)CC3)c12
Result: 1.04

Task: # query: log10(IC50) of entry Cc1c[nH]c2ncnc(N3CCN(/C(=N/S(C)(=O)=O)Nc4cccc(Br)c4)[C@@H](C)C3)c12
Result: 0.83

Task: # query: log10(IC50) of entry Cc1ccccc1NC(=O)C1CCN(c2ncnc3[nH]cc(C)c23)CC1
Result: 4.06

Task: # query: log10(IC50) of entry Cc1c[nH]c2ncnc(N3CCN(C(=O)Nc4cccc(OC(=O)N(C)C)c4)[C@@H](C)C3)c12
Result: 0.08

Task: # query: log10(IC50) of entry Cc1c[nH]c2ncnc(N3CCC(C(=O)Nc4cccc(Br)c4)CC3)c12
Result: 2.48

Task: # query: log10(IC50) of entry C[C@H]1CN(c2ncnc3[nH]cc(Cl)c23)CCN1/C(=N/C#N)Nc1cccc(Br)c1
Result: 0.08

Task: # query: log10(IC50) of entry Cc1c[nH]c2ncnc(N3CCN(C(=O)Nc4cccc(Br)c4)[C@@H](C)C3)c12
Result: 0.59

Task: # query: log10(IC50) of entry COc1cccc(NC(=O)N2CCN(c3ncnc4[nH]cc(C)c34)CC2)c1
Result: 2.15
